target.or.test.system: Recombinant human cathepsin A (Homo sapiens (Human))
Sequence (P10619 29-326): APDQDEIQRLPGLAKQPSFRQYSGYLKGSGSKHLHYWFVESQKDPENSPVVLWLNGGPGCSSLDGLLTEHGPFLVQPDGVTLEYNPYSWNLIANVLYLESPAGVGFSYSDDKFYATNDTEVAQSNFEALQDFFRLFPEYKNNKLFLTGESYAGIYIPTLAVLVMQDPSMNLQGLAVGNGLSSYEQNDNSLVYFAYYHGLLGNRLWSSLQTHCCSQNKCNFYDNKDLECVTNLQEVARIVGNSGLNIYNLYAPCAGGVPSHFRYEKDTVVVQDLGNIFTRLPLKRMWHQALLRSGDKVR
Sequence (P10619 327-480): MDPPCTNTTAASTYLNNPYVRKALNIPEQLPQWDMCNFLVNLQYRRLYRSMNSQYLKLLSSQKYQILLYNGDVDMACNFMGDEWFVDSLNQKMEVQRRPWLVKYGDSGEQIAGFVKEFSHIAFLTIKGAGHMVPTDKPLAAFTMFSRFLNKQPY
assay.explanation: Cathepsin A inhibitory activity (cleavage of Bodipy FL-labeled bradykinin, microfluidic capillary electrophoresis)
Format: biochemical
experimental.parameters: read-out: Activity [μM] (IC50, cathepsin A inhibitory activity)
The label is y for IC50 below 2 µM and n for IC50 equal to or exceeding 2 µM.

Recorded results for 5 molecules are shown here.
Cc1ccccc1[C@H](CC(=O)O)NC(=O)c1cccc(-c2ccc(C(=O)N(C)C)c(Cl)c2)n1 [compound 174] ... y
Cc1cc(F)c(-c2cccc(C(=O)N[C@@H](CC(=O)O)c3ccccc3C)n2)cc1Cl [compound 175] ... n
COc1ccc(C(=O)N[C@@H](CC(=O)O)c2ccc(C)cc2)nc1-c1cccc(C)c1 [compound 197] ... y
COc1ccc(C(=O)N[C@@H](CC(=O)O)c2ccc(C)cc2)nc1-c1ccc(Cl)cc1Cl [compound 183] ... y
COc1ncc(C(=O)N[C@@H](CC(=O)O)c2ccccc2Cl)cc1-c1ccc(F)cc1 [compound 346] ... n

Lab note: next molecule to report on.
I wonder whether Cc1ccccc1[C@H](CC(=O)O)NC(=O)c1cccc(-c2cccc(Cl)c2)n1 [compound 140] has IC50 below 2 µM. Can you tell?
y
